// provenance: ChEMBL document CHEMBL5260820

Heads up, these molecules all have pKi values measured for Histamine H3 receptor (Rattus norvegicus, UniProt Q9QYN8).
Answers are plain numbers, as −log10 of the molar value.

Answered cases to consult:
molecule: C[C@@]12CC[C@@H]3c4ccc(OCCCN5CCCC5)cc4CC[C@H]3[C@@H]1CCC2N1CCCC1 (some centres undefined)
result_number: 8.21

molecule: C[C@]12CC[C@@H]3c4ccc(OCCCN5CCC(C(N)=O)CC5)cc4CC[C@H]3[C@@H]1CC[C@@H]2N1CCCC1
result_number: 8.51

molecule: C[C@]12CC[C@@H]3c4ccc(OCc5ccc(Cl)cn5)cc4CC[C@H]3[C@@H]1CC[C@@H]2N1CCCC1
result_number: 7.31

Qu. Name the reported pKi value associated with the molecule S=C(NC1CCCCC1)N1CCC(c2cnc[nH]2)CC1 [THIOPERAMIDE]
Ans. 7.64

* * *

species on record: Rattus norvegicus; assay: Displacement of [3H]quinuclidinyl benzilate from Wistar rat cortex muscarinic AChR at 1 uM by liquid scintillation counting analysis relative to control; assay type: tissue-based
value_kind: Activity (%)
Numbers only, in %.

compound: C[C@]12CC[C@@H]3c4ccc(OCCCCN5CCCC5)cc4CC[C@H]3[C@@H]1CC[C@@H]2N1CCCC1
value_kind: Activity
unit_symbol: %
result_number: 73
--
compound: C[C@]12CC[C@@H]3c4ccc(OCCN5CCCC5)cc4CC[C@H]3[C@@H]1CC[C@@H]2N1CCCC1
value_kind: Activity
unit_symbol: %
result_number: 69
--
compound: C[C@]12CC[C@@H]3c4ccc(OCCCN5CCC(O)CC5)cc4CC[C@H]3[C@@H]1CC[C@@H]2N1CCCC1
value_kind: Activity
unit_symbol: %
result_number: 55
--
compound: C[C@]12CC[C@@H]3c4ccc(OCc5ccncc5)cc4CC[C@H]3[C@@H]1CC[C@@H]2N1CCCC1
value_kind: Activity
unit_symbol: %
result_number: 51

Provide Activity for all items below, preserving their order.
1. CN1CCC[C@H]2[C@@H]3CC[C@H]4C[C@@H](OC(=O)CCN5CCCC5)CC[C@]4(C)[C@H]3CC[C@@]21C
2. C[C@H]1CCCN1CCCOc1ccc2c(c1)CC[C@@H]1[C@@H]2CC[C@]2(C)[C@@H](N3CCCC3)CC[C@@H]12

Ans.
[44, 76]

* * *

target: Histamine H3 receptor (Homo sapiens); experiment: Antagonist activity at human histamine H3 receptor expressed in CHO-K1 cells assessed as inhibition of imetit-stimulation ERK1/2 phosphorylation by ELISA analysis
Sequence (Q9Y5N1 whole entry): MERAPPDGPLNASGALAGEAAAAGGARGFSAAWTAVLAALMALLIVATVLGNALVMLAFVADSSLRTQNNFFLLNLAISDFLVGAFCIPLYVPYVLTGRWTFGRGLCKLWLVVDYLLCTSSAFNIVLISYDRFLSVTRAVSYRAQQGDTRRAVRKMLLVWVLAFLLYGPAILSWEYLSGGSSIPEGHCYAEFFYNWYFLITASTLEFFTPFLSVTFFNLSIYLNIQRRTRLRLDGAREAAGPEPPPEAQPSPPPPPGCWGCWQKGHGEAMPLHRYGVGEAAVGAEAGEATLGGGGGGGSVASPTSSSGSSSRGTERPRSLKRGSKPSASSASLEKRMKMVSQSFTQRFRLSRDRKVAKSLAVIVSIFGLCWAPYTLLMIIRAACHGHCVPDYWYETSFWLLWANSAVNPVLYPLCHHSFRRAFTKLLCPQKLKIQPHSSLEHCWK
Would you mind telling me the reported pIC50 of each entry?
Answers are plain numbers, as −log10 of the molar value.

Record pIC50 for all entries; do not skip any.
1. C[C@]12CC[C@@H]3c4ccc(OCCN5CCCC5)cc4CC[C@H]3[C@@H]1CC[C@@H]2N1CCCC1
2. C[C@]12CC[C@@H]3c4ccc(OCc5ccccn5)cc4CC[C@H]3[C@@H]1CC[C@@H]2N1CCCC1
3. C[C@]12CC[C@@H]3c4ccc(OCCCN5CCC(O)C5)cc4CC[C@H]3[C@@H]1CC[C@@H]2N1CCCC1 (some centres undefined)
4. CC1CCCN1CCCOc1ccc2c(c1)CC[C@@H]1[C@@H]2CC[C@]2(C)[C@@H](N3CCCC3)CC[C@@H]12 (mixture of isomers)

Ans.
7.54
7.29
8.41
7.92

* * *

target: Histamine H3 receptor (Homo sapiens); test: Antagonist activity at human histamine H3 receptor expressed in CHO-K1 cells assessed as inhibition of imetit-stimulation ERK1/2 phosphorylation by ELISA analysis
value_kind: IC50 (nM)
Give bare numbers, in nM.

Solved cases below.
smiles_text: C[C@]12CC[C@@H]3c4ccc(OCCCN5CCNC(=O)C5)cc4CC[C@H]3[C@@H]1CC[C@@H]2N1CCCC1
unit_symbol: nM
result_number: 17.4
--
smiles_text: C[C@]12CC[C@@H]3c4ccc(OCCCCN5CCCC5)cc4CC[C@H]3[C@@H]1CC[C@@H]2N1CCCC1
unit_symbol: nM
result_number: 7.5
--
smiles_text: C[C@@H]1Cc2cc(OCCCN3CCCC3)ccc2[C@H]2CC[C@]3(C)[C@@H](N4CCCC4)CC[C@H]3[C@H]12
unit_symbol: nM
result_number: 12

Working through the 4 molecules below one at a time, give IC50 for each.
1. C[C@]12CC[C@@H]3c4ccc(OCCCN5CCCCCC5)cc4CC[C@H]3[C@@H]1CC[C@@H]2N1CCCC1
2. C[C@H]1CCCN1CCCOc1ccc2c(c1)CC[C@@H]1[C@@H]2CC[C@]2(C)[C@@H](N3CCCC3)CC[C@@H]12
3. C[C@]12CC[C@@H]3c4ccc(OCCCN5CCC(O)CC5)cc4CC[C@H]3[C@@H]1CC[C@@H]2N1CCCC1
4. CC(=O)C1CCN(CCCOc2ccc3c(c2)CC[C@@H]2[C@@H]3CC[C@]3(C)[C@@H](N4CCCC4)CC[C@@H]23)CC1

Ans.
1: 17.5; 2: 11.6; 3: 4.2; 4: 14.2
